These entries and their values trace back to PubChem BioAssay (NCI).

# Assay: NCI Yeast Anticancer Drug Screen. Data for the CLN2oe strain (AID 163);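 note: 0% = growth of vehicle-only control cultures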
# Condition Label: S. cerevisiae CLN2oe strain, at 33.0 µM, hits give high values
The panel holds about 79,000 compounds, 15% with a hit somewhere; the sample as a whole holds those more often.
Metric Name: growth inhibition (%)
Numeric only. Scale: %

Task: Entry O=C1Nc2ccccc2/C1=C/COc1ccccc1 : reported growth inhibition = ?
Output: 39

Task: Entry CCC#CCCCOC(=O)c1cc([N+](=O)[O-])cc([N+](=O)[O-])c1 : reported growth inhibition = ?
Output: 44

Task: Entry CCCCN1C(=O)N(c2ccc(OCC)cc2)C2N(CCCC)C1C(C)(C)C2(C)C (stereo not given) : reported growth inhibition = ?
Output: -10

Task: Entry CC1OCC2OC(C)OC(C3C4=C(CC(C)(C)CC4=O)OC4=C3C(=O)CC(C)(C)C4)C2O1 (stereo not given) : reported growth inhibition = ?
Output: -2

Task: Entry C/C(=N/NC(=S)N1CCCCCC1)c1cccc(/C(C)=N\NC(=S)N2CCCCCC2)n1 : reported growth inhibition = ?
Output: -5

Task: Entry O=C1OC(=O)C2CCCC3CCCC1C32 (stereo not given) : reported growth inhibition = ?
Output: 97

Task: Entry Cc1cc(O)cc(O)c1N=Nc1ccc([N+](=O)[O-])cc1 : reported growth inhibition = ?
Output: 42

Task: Entry COC1C=COC2(C)Oc3c(C)c(O)c4c(c3C2=O)/C(=N/C2CCC(O)OC2C)C=C(NC(=O)/C(C)=C\C(=O)C2CC2C(O)C(C)C(O)C(C)C(OC(C)=O)C1C)C4=O (stereo not given) : reported growth inhibition = ?
Output: 3

Task: Entry CCCCCCCCCCCCCCC(C(=O)[O-])[n+]1ccccc1 (stereo not given) : reported growth inhibition = ?
Output: -2

Task: Entry NNc1c(F)c(F)cc(F)c1F : reported growth inhibition = ?
Output: 18
